Recorded pEC50, one value per entry.
Tested on: breast cancer cell line MX-1
Assay protocol: MX-1 cell line proliferation assay
Type: cell-based
Measurement conditions: MX-1 cells, 3-day proliferation assay, Cell Titer Glo; read-out: Cellular proliferation: EC50
The scale used: pEC50 is minus the common logarithm of the concentration in molar units.

COC(=O)CCCCC1c2c[nH]c3c(=O)n(C)cc(c23)-c2cc(CS(C)(=O)=O)ccc2N1c1ccc(F)cc1F (stereo not shown); 6.74
COc1ccc(NC(=O)N2Cc3c[nH]c4c(=O)n(C)cc(c34)-c3cc(CS(C)(=O)=O)ccc32)cc1; 6.04

// switching to the query molecule
Measured pEC50 (breast cancer cell line MX-1), entry "Cn1cc2c3c(c[nH]c3c1=O)CN(C(=O)Nc1ccc(F)cc1F)c1ccc(CS(C)(=O)=O)cc1-2" : 7.40

----------
Experimental system: BRD4 (BDI_K57-E168) (Homo sapiens)
Construct: BD1: amino acids K57-E168; made in house
Assay protocol: TR-FRET bromodomain binding assay, first bromodomain of BRD4
Measurement conditions: TR-FRET assay protocol G (compound 0.92 μM-15 pM); 100 nM probe
Parameter measured: pKi
The scale used: pKi is minus the common logarithm of the concentration in molar units.

// worked examples, pKi included
Cn1cc2c3c(c[nH]c3c1=O)C(CCC(=O)N1CCOCC1)N(c1ccc(F)cc1F)c1ccc(CS(C)(=O)=O)cc1-2 (stereo not shown) [Example 120]; 8.03
CCOCCCC1c2c[nH]c3c(=O)n(C)cc(c23)-c2cc(CS(C)(=O)=O)ccc2N1c1ccc(F)cc1F (stereo not shown) [Example 148]; 8.17
CCNC(=O)c1[nH]c2c(=O)n(C)cc3c2c1C(C(=O)OCC)N(c1ccc(F)cc1F)c1ccc(CS(C)(=O)=O)cc1-3 (stereo not shown) [Example 239]; 7.50

Measured pKi (BRD4 (BDI_K57-E168) (Homo sapiens)), entry Cn1cc2c3c(c[nH]c3c1=O)C(CCC(=O)N1CCNCC1)N(c1ccc(F)cc1F)c1ccc(CS(C)(=O)=O)cc1-2 (stereo not shown) [Example 131] : 7.97

Measured pKi (BRD4 (BDI_K57-E168) (Homo sapiens)), entry Cn1cc2c3c(c[nH]c3c1=O)CN(c1ccccn1)c1ccc(CS(C)(=O)=O)cc1-2 [Example 207] : 9.04

Measured pKi (BRD4 (BDI_K57-E168) (Homo sapiens)), entry CC(=O)OCC(CCC1c2c[nH]c3c(=O)n(C)cc(c23)-c2cc(CS(C)(=O)=O)ccc2N1c1ccc(F)cc1F)OC(C)=O (stereo not shown) [Example 133] : 8.03

Measured pKi (BRD4 (BDI_K57-E168) (Homo sapiens)), entry Cn1cc2c3c(c[nH]c3c1=O)CN(C(=O)Nc1c(F)cccc1F)c1ccc(CS(C)(=O)=O)cc1-2 [Example 70] : 8.13

Measured pKi (BRD4 (BDI_K57-E168) (Homo sapiens)), entry CCOCCC(C)N1Cc2c[nH]c3c(=O)n(C)cc(c23)-c2cc(CS(C)(=O)=O)ccc21 (racemic) [Example 153] : 8.43

----------
System: breast cancer cell line MX-1
Assay protocol: MX-1 cell line proliferation assay
Format: cell-based
Measurement conditions: MX-1 cells, 3-day proliferation assay, Cell Titer Glo; read-out: Cellular proliferation: EC50
Parameter measured: pEC50
The scale used: pEC50 is minus the common logarithm of the concentration in molar units.

Just so you know, measured pEC50 for Cn1cc2c3c(c[nH]c3c1=O)CN(c1ccccn1)c1ccc(CS(C)(=O)=O)cc1-2 [Example 207] came out at 8.88

Just so you know, measured pEC50 for COC(=O)CCC1c2c[nH]c3c(=O)n(C)cc(c23)-c2cc(CS(C)(=O)=O)ccc2N1CC1CC1 (stereo not shown) [Example 14] came out at 7.84

Just so you know, measured pEC50 for CN(C)CCCC1c2c[nH]c3c(=O)n(C)cc(c23)-c2cc(CS(C)(=O)=O)ccc2N1c1ccc(F)cc1F (racemic) [Example 175] came out at 7.00

Just so you know, measured pEC50 for Cn1cc2c3c(c[nH]c3c1=O)C(C(=O)NCCc1ccccc1)N(c1ccc(F)cc1F)c1ccc(CS(C)(=O)=O)cc1-2 (stereo not shown) [Example 156] came out at 6.67
